Kindly state melting point for each of the entries shown.

Asked: Quick one: melting point for COC(=O)C1CN(C)CCC1c1ccc(Br)cc1 (single isomer, unassigned; (+)) [Compound 69] ?
Given back: 125 to 126 °C

Asked: For C=Cc1ccc(C2CCN(C)CC2C(=O)OC)cc1 (single isomer, unassigned; (-)) , what is its reported melting point?
Given back: 68 to 69 °C

Asked: What melting point value was documented for this compound, `CC(=O)OC[C@@H]1CN(C)CC[C@@H]1c1ccc(Cl)cc1` ?
Given back: 76 °C

Asked: What value of melting point has been recorded for this entry: COC(=O)[C@@H]1CN(C)CC[C@@H]1c1ccc(Cl)cc1 (racemic)
Given back: 98 to 99 °C

Asked: Given the compound COC(=O)C1CN(S(=O)(=O)c2ccccc2)CCC1c1ccc(Cl)cc1 (single isomer, unassigned; (-)) , what is its reported melting point?
Given back: 76 to 78 °C

Asked: melting point for COC(=O)C1CN(C)CCC1c1cccc2ccccc12 (racemic) ?
Given back: 108 to 109 °C

Asked: Which melting point reading was recorded for the compound COC(=O)[C@@H]1CN(C)CC[C@@H]1c1ccc2ccccc2c1 (racemic) ?
Given back: 100 to 101 °C

Asked: Any idea what its melting point is? The compound is COC(=O)C1CN(C)CCC1c1ccc(Br)cc1 (single isomer, unassigned; (-)) [Compound 63]
Given back: 121 to 122 °C

Asked: Given the compound COC(=O)C1CN(Cc2ccccc2)CCC1c1ccc(Cl)cc1 (single isomer, unassigned; (-)) , what is its reported melting point?
Given back: 119 to 121 °C

Asked: May I ask what melting point has been recorded for COC(=O)C1CN(CCCc2ccccc2)CCC1c1ccc(Cl)cc1 (single isomer, unassigned; (-)) ?
Given back: 73 to 75 °C

###

molecular target: dopamine transporter (Rattus norvegicus); construct: from tissue; P2 synaptosomes for uptake; assay: Inhibition of high-affinity [3H]dopamine uptake into rat striatal nerve endings (synaptosomes); format: biochemical; conditions: Table 2; unit inferred; read-out: Dopamine Uptake
Sequence (P23977 whole entry): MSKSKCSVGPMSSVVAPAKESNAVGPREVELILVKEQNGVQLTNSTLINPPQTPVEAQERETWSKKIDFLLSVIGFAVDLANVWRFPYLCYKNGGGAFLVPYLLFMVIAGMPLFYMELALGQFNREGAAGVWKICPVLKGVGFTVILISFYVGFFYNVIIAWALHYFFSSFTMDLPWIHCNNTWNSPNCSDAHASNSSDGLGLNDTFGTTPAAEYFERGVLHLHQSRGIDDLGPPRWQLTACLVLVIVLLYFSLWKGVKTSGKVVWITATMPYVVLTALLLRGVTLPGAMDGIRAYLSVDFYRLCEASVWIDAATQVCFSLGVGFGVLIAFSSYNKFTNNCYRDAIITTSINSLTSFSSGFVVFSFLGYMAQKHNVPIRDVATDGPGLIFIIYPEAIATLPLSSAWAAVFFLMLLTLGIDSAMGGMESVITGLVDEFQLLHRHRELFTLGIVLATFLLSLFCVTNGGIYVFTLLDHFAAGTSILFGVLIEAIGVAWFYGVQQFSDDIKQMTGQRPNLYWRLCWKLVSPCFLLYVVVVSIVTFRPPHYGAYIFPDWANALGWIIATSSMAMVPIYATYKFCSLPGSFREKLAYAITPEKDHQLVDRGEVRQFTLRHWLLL
RESULT TYPE: pIC50
Quick note: pIC50 values are minus log10 of concentrations in mol/L.

Asked: Can you look up pIC50 on dopamine transporter (Rattus norvegicus) for COC(=O)C1CN(C)CCC1c1ccc(Cl)cc1 (single isomer, unassigned; (+)) [Compound 4] ?
Given back: 5.29

Asked: Short answer please: pIC50, dopamine transporter (Rattus norvegicus), entry CC(=O)OCC1CN(C)CCC1c1ccc(Cl)cc1 (single isomer, unassigned; (+))
Given back: 5.69

Asked: Report pIC50 for `COC(=O)[C@@H]1CN(C)CC[C@@H]1c1ccc(Cl)cc1` tested on dopamine transporter (Rattus norvegicus).
Given back: 7.07

Asked: Which pIC50 is reported with dopamine transporter (Rattus norvegicus) for this entry: COC(=O)C1CN(C)CCC1c1ccc(Cl)cc1 (single isomer, unassigned; (-)) [Compound 12] ?
Given back: 6.71

###

molecular target: dopamine transporter (Rattus norvegicus); construct: from tissue; P2 synaptosomes for uptake; assay: Inhibition of high-affinity [3H]dopamine uptake into rat striatal nerve endings (synaptosomes); assay type: biochemical; settings: rat striatal synaptosomes; Table 1; read-out: IC50 (nM) [3H]dopamine uptake
For each record, check the reported IC50: if it is below 90 nM write label 1, else write label 0.

Asked: Problem: For the molecule `COC(=O)[C@H]1CN(C)CC[C@@H]1c1ccc(Cl)cc1` , is IC50 under 90 nM?
Given back: label 1

Asked: Would you kindly verify if IC50 of COC(=O)[C@@H]1CN(C)CC[C@@H]1c1ccc(Cl)cc1 (racemic) [Compound 1] is strictly less than 90 nM?
Given back: label 1

Asked: is_below(IC50, 90 nM) for `CCC[C@@H]1CN(C)CC[C@@H]1c1ccc(Cl)cc1` ?
Given back: label 1

Asked: Hello, I'm reviewing records and need to know if IC50 of COC(=O)C1CN(C)CCC1c1ccc(Cl)cc1 (single isomer, unassigned; (-)) [Compound 12] is below 90 nM. Could you check?
Given back: label 0

Asked: Input COC(=O)[C@@H]1CN(C)CC[C@@H]1c1ccc(Cl)cc1 [Compound 3] ; condition: IC50 strictly below 90 nM. Does it hold?
Given back: label 1

Asked: Please determine if `CC(=O)OC[C@@H]1CN(C)CC[C@@H]1c1ccc(Cl)cc1` is below 90 nM in terms of IC50.
Given back: label 1

Asked: Hello, I'm reviewing records and need to know if IC50 of CC(=O)OCC1CN(C)CCC1c1ccc(Cl)cc1 (single isomer, unassigned; (+)) is below 90 nM. Could you check?
Given back: label 0

Every entry's value here was drawn from patent US6440996B1.
